Collected composite z-score values appear next to each entry.
- MEASUREMENT_NOTES: small-molecule binders of probe aNOTCH2, primary screen, biochemical, small-molecule microarray, 635/667 nm fluorescence (AID 1121);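 further: score merges feature fluorescence read at 667 nm with its signal to noise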
- CONDITION_DESCRIPTION: higher = more signal

- MOLECULE: "C=CCNC(=O)[C@@H]1[C@H]2C(=O)O[C@H](c3ccccc3)[C@H](c3ccccc3)N2[C@H](c2ccc(OCCO)cc2)[C@@]12C(=O)Nc1ccc(C#CCNC(N)=O)cc12"
  composite z-score: -0.13
- MOLECULE: "COC(=O)[C@@]1(Cc2ccccc2)[C@H]2c3cc(C(=O)N(C)C)n(CCF)c3C[C@H]2CN1C(=O)c1ccccc1"
  composite z-score: 0.334
- MOLECULE: "COC(=O)[C@@]1(Cc2ccc(F)cc2)[C@H]2c3cc(C(=O)N4CCCC4)n(Cc4ccc(C(F)(F)F)nc4)c3C[C@H]2CN1C(=O)c1ccccc1"
  composite z-score: -0.0013
- MOLECULE: "CC1CC/C=C\\[C@H]2OC34C=CCN(C(C)C)C(=O)[C@H]3N(C(C)CO)C(=O)[C@@H]4C2C(=O)O1 (some centres not stated)"
  composite z-score: -0.115
- MOLECULE: "COc1ccc([Si](C)(C)[C@@H]2[C@@H](CC(=O)N3CCC[C@H]3CO)O[C@]3(C(=O)N(Cc4cccc(N5C(=O)c6cccc7cccc5c67)c4)c4ccccc43)[C@H]2C)cc1"
  composite z-score: -0.166
- MOLECULE: "O=C1OC[C@@H](c2ccccc2)n2cc(/C=C/c3ccccc3)cc21"
  composite z-score: -0.149
- MOLECULE: "C=C[C@H](OC)[C@@H](O)c1ccc(OC)c(O)c1"
  composite z-score: -0.19
